Kindly state Emax for each of the entries shown.
Molecular target: SIRT1 (Homo sapiens, UniProt Q96EB6)
Sequence (Q96EB6 whole entry): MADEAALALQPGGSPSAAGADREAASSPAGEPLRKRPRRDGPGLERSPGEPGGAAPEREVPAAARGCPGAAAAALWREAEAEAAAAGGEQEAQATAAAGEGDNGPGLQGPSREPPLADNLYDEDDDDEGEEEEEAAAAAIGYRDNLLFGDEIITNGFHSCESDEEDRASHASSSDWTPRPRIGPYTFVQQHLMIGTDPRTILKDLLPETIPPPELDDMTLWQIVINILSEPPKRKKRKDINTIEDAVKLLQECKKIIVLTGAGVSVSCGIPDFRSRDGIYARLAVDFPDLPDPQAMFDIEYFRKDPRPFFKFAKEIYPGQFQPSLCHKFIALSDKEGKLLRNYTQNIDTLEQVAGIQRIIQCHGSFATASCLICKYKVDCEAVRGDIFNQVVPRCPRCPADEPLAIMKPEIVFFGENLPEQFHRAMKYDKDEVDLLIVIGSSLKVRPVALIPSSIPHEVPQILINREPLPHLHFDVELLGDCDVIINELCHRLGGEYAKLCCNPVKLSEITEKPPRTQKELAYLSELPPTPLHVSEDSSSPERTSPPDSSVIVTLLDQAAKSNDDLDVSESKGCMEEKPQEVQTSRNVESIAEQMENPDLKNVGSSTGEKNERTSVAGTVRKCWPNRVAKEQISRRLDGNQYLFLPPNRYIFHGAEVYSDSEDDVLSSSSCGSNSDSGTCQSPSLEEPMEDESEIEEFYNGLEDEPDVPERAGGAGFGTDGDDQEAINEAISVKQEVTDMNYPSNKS
Test: Trp mass spectrometry assay of SIRT1 activity
Format: biochemical
Conditions: Trp peptide substrate; percent maximum fold activation; read-out: Trp % Fold Act

// Cc1cc2ncc(NC(=O)c3cnccn3)n2nc1-c1ccccc1C(F)(F)F [Compound 442] : Emax value = < 350%

// Cc1cnc(NC(=O)c2cnn3ccc(-c4ccccc4C(F)(F)F)nc23)s1 [Compound 507] : Emax value = < 350%

// O=C(Nc1cccc(O)n1)c1cnn2ccc(-c3ccccc3OC(F)(F)F)nc12 [Compound 580] : Emax value = ≥ 350%

// CN(C)[C@@H]1CCN(c2ccc3ncc(C(=O)Nc4cccc(N5CCOCC5)n4)n3n2)C1 [Compound 511] : Emax value = < 350%

// O=C(Nc1cnn2ccc(-c3ccccc3OC(F)(F)F)nc12)c1cnccn1 [Compound 584] : Emax value = < 350%

// Cc1nn2ccc(-c3ccccc3C(F)(F)F)nc2c1C(=O)Nc1cccc(N2CCOCC2)n1 [Compound 552] : Emax value = ≥ 350%

// Cc1cc(NC(=O)c2cnc3ccc(-c4cccc(OCC(O)CO)c4)nn23)cc(C)n1 (centres unmarked) [Compound 418] : Emax value = < 350%

// Cc1cc(C)nc(NC(=O)c2cnc3c(C)cc(-c4ccccc4C(F)(F)F)nn23)c1 [Compound 516] : Emax value = < 350%

---

Biological target: SIRT1 (Homo sapiens)
Assay: TAMRA based mass spectrometry assay of SIRT1 activity
Type: biochemical
Details: TAMRA assay; concentration giving 150% activation of SIRT1
METRIC NAME: TAMRA EC1.5 (μM)

> print(dat)
                                    compound       metric.name      readout.value
 1  COCCOc1cc(NC(=O)c2cnc3ccc(-c4ccccc4C(F)(F)F)nn23)ncn1 [Compound 663]  TAMRA EC1.5 (μM)     A (EC1.5<1 μM)
 2  Cc1cc(C)nc(NC(=O)c2cnc3c(C)c(C)c(-c4ccccc4C(F)(F)F)nn23)c1 [Compound 228]  TAMRA EC1.5 (μM)     A (EC1.5<1 μM)
 3  O=C(Nc1ccccn1)c1cnc2ccc(-c3ccccc3OCC(O)CO)nn12 (stereo not shown) [Compound 368]  TAMRA EC1.5 (μM)  B (EC1.5 1-25 μM)
 4  Cc1ncccc1NC(=O)c1cnn2ccc(-c3ccccc3C(F)(F)F)nc12 [Compound 630]  TAMRA EC1.5 (μM)  B (EC1.5 1-25 μM)
 5  Cc1nc2ccc(-c3ccccc3C(F)(F)F)nn2c1NC(=O)c1ccccn1 [Compound 375]  TAMRA EC1.5 (μM)  B (EC1.5 1-25 μM)
 6  Cc1cc(NC(=O)c2cnc3ccc(-c4ccccc4Cl)nn23)cc(C)n1 [Compound 260]  TAMRA EC1.5 (μM)     A (EC1.5<1 μM)
 7  O=C(Nc1cnc2ccc(-c3ccccc3C(F)(F)F)nn12)c1cccc(OCC(O)CO)n1 (stereo not shown) [Compound 235]  TAMRA EC1.5 (μM)     A (EC1.5<1 μM)
 8  Cc1cc(C)nc(NC(=O)c2c(C)nn3ccc(-c4ccccc4C(F)(F)F)nc23)c1 [Compound 685]  TAMRA EC1.5 (μM)     A (EC1.5<1 μM)
 9  Cc1cnc(NC(=O)c2cnn3ccc(-c4ccccc4OC(F)(F)F)nc23)c(C)n1 [Compound 689]  TAMRA EC1.5 (μM)    C (EC1.5>25 μM)
10  Cc1cc(OCC2(C)COC2)nc(NC(=O)c2cnc3ccc(-c4ccccc4C(F)(F)F)nn23)n1 [Compound 277]  TAMRA EC1.5 (μM)     A (EC1.5<1 μM)

Lab entry: SIRT1 (Homo sapiens) assay, compound Cc1cnc(C(=O)Nc2cnn3ccc(-c4ccccc4C(F)(F)F)nc23)cn1 [Compound 800] , TAMRA EC1.5 (μM) = B (EC1.5 1-25 μM)

Lab entry: SIRT1 (Homo sapiens) assay, compound COc1ccc(NC(=O)c2c(C)nc3ccc(-c4cccc(C)c4)nn23)nn1 [Compound 759] , TAMRA EC1.5 (μM) = A (EC1.5<1 μM)

Lab entry: SIRT1 (Homo sapiens) assay, compound O=C(Nc1cnn2ccc(-c3ccccc3C(F)(F)F)nc12)c1cccc(CN2CCOCC2)n1 [Compound 255] , TAMRA EC1.5 (μM) = A (EC1.5<1 μM)
